Item-by-item account of pIC50
# Test system: NCI-H460
# Method notes: Cell proliferation assay, NCI-H460
# Format: cell-based
# Test context: Homo sapiens; NCI-H460 (Table 2B)
// returns pIC50 (minus log10 of molar concentration), number only

Example results:
[[record]]
compound = "Cc1nn(-c2cc(F)c(C(N)=O)c(N[C@@H]3CCCC[C@H]3O)c2)c2c1C=CC(C)(C)C2"
system_name = "NCI-H460"
assay_result = 5.86

[[record]]
compound = "Cc1nn(-c2cc(F)c(C(N)=O)c(N[C@H]3CCOC3)c2)c2c1CCC(C)(C)C2"
system_name = "NCI-H460"
assay_result = 5.50

[[record]]
compound = "Cc1nn(-c2cc(F)c(C(N)=O)c(NC3CCOC3)c2)c2c1C=CC(C)(C)C2 (centres unmarked)"
system_name = "NCI-H460"
assay_result = 5.86


Item: Cc1nn(-c2cc(F)c(C(N)=O)c(N[C@H]3CCCC[C@@H]3O)c2)c2c1CCC(C)(C)C2 | pIC50: 5.72

Item: Cc1nn(-c2cc(F)c(C(N)=O)c(N[C@H]3CCC[C@@H]3O)c2)c2c1CCC(C)(C)C2 | pIC50: 7.38
